- Tested on: THP-1
- protocol-description: Antiinflammatory activity in human PMA-activated THP1 cells assessed as inhibition of LPS-induced IL6 production at 10 uM incubated for 30 mins prior to LPS-challenge measured after 24 hrs by ELISA relative to control
- Type: functional
Tick 1 (yes) if inhibition at 10 µM is 20% or greater. Tick 0 (no) if inhibition at 10 µM is less than 20%.

Exercise: Tell me whether inhibition at 10 µM is at least 20% here: COc1ccc2oc(N3CCN(c4ccccc4)CC3C#N)cc(=O)c2c1 (stereo unspecified)
Key: 0 (no)

Exercise: Given COc1ccc2oc(N3CCN(C)CC3)cc(=O)c2c1 , state whether its inhibition at 10 µM is at least 20%.
Key: 1 (yes)

Exercise: Could you verify whether the entry COc1cc(OC)c2c(=O)cc(CN3CCN(C)CC3)oc2c1 shows inhibition at 10 µM of no less than 20%?
Key: 0 (no)

Exercise: Is it the case that COc1ccc2oc(NC3CCN(Cc4ccccc4)CC3)cc(=O)c2c1 has inhibition at 10 µM reaching or exceeding 20%?
Key: 0 (no)

Exercise: Please indicate if the recorded inhibition at 10 µM for COc1ccc2oc(N3CCN(c4ccccc4)CC3)cc(=O)c2c1 meets or exceeds 20%.
Key: 1 (yes)

* * *

- Tested on: Candida albicans
- protocol-description: Ratio of miconazole MIC to compound MIC for Candida albicans MTCC 227
- Type: functional
measurement-label: Ratio

Exercise: Give the reported value of Ratio for this record: COc1ccc2oc(N3CCN(c4ccccc4)CC3C#N)cc(=O)c2c1 (stereo not given)
Key: 2

Exercise: For the compound COc1cc(OC)c2c(=O)cc(CN3CCN(C/C=C/c4ccccc4)CC3)oc2c1 , report Ratio.
Key: 2

Exercise: Please list Ratio recorded for the compound COc1ccc2oc(NC3CCN(Cc4ccccc4)CC3)cc(=O)c2c1
Key: 2

Exercise: Give recorded Ratio. COc1ccc2oc(NCCN3CCCC3)cc(=O)c2c1
Key: 2

Exercise: Give reported Ratio value for COc1cc(OC)c2c(=O)cc(CNC3CCN(Cc4ccccc4)CC3)oc2c1
Key: 2

* * *

- System: THP-1
- protocol-description: Antiinflammatory activity in human PMA-activated THP1 cells assessed as inhibition of LPS-induced IL6 production at 10 uM incubated for 30 mins prior to LPS-challenge measured after 24 hrs by ELISA relative to control
- Type: functional
For each entry below, report its inhibition at 10 µM value.
Respond numerically; units are % and should not be typed.

Exercise: Note inhibition at 10 µM for the compound shown: COc1ccc2oc(N3CCOCC3)cc(=O)c2c1
Key: 84

Exercise: Supply measured inhibition at 10 µM of COc1cc(OC)c2c(=O)cc(CN3CCN(c4ccccn4)CC3)oc2c1 in your reply.
Key: 70

Exercise: Quote inhibition at 10 µM reported for COc1cc(OC)c2c(=O)cc(CN3CCN(c4ccccc4)CC3)oc2c1 please.
Key: 50

Exercise: Give inhibition at 10 µM for the following compound: COc1ccc(N2CCN(c3cc(=O)c4cc(OC)ccc4o3)CC2)cc1
Key: 83

Exercise: Check the records and state inhibition at 10 µM for COc1cc(OC)c2c(=O)cc(CN3CCN(C(C)=O)CC3)oc2c1
Key: 0

Exercise: Please indicate inhibition at 10 µM recorded for CCN1CCN(Cc2cc(=O)c3c(OC)cc(OC)cc3o2)CC1
Key: 30

Exercise: For the compound COc1ccc2oc(N3CCN(Cc4ccccc4)CC3)cc(=O)c2c1 , give its reported inhibition at 10 µM.
Key: 0

Exercise: // Input: COc1cc(OC)c2c(=O)cc(CNC3CCN(Cc4ccccc4)CC3)oc2c1 . Output its inhibition at 10 µM only.
Key: 35

Exercise: Answer with reported inhibition at 10 µM of CCN1CCN(c2cc(=O)c3cc(OC)ccc3o2)CC1
Key: 40

Exercise: Identify measured inhibition at 10 µM associated with COc1cc(OC)c2c(=O)cc(CN3CCN(C/C=C/c4ccccc4)CC3)oc2c1
Key: 25

Exercise: Provide inhibition at 10 µM value for the following compound: COc1ccc(N2CCN(Cc3cc(=O)c4c(OC)cc(OC)cc4o3)CC2)cc1
Key: 93

Exercise: Quickly give me recorded inhibition at 10 µM for COc1cc(OC)c2c(=O)cc(CN3CCOCC3)oc2c1
Key: 91

Exercise: Please give measured inhibition at 10 µM of the following entry: COc1ccc2oc(N3CCN(c4ncccn4)CC3)cc(=O)c2c1
Key: 87

Exercise: Item COc1cc(OC)c2c(=O)cc(CN3CCN(c4ncccn4)CC3)oc2c1 : provide inhibition at 10 µM
Key: 93
